test: Half life was measured; assay type: ADME
Would you please tag the item 1.0 when its half-life is 10 min or above, and 0.0 when it is below?

{"columns": ["Compound", "Group Label"],
 "data": [
  ["CN(CC#CCN1CCCC1=O)CCCBr", 1.0],
  ["CN(CC#CCN1CCCC1=O)CCCCCl", 0.0],
  ["CC1CCC(=O)N1CC#CCN(C)CCCBr (configuration not stated)", 1.0],
  ["CN(CC#CCN1CCCC1=O)CCCCl", 1.0],
  ["CN(CC#CCN1CCCC1=O)CCCI", 1.0],
  ["CN(CC#CCN1CCCC1=O)CCCl", 1.0],
  ["CN(CC#CCN1CCCC1=O)CCBr", 0.0]
]}
